Measured values drawn from PubChem BioAssay (NCI) for this set.

Assay: NCI Yeast Anticancer Drug Screen. Data for the mec2-1 strain (AID 157)
Settings: S. cerevisiae mec2-1 strain, at 50.0 µM, active compounds read high
This is part of a sample that, as a whole, favours compounds with a hit. Of some 79,000 tested, about 15% had one in any assay.
measurement_label: growth inhibition (%)
A number alone suffices; assume %.

Look over these answered cases.
compound | growth inhibition, %
CCOc1ccc2ccccc2c1 | 0.7
Cc1cc(O)c(/C=N/c2nc(-c3ccc([N+](=O)[O-])cc3)cs2)c(=O)o1 | 20.9
O=C(Nc1ccc(Cl)c(Cl)c1)c1ccc(C(=O)Nc2ccc(Cl)c(Cl)c2)cc1 | 19.1

// growth inhibition lookup, compound = CCN(CC)c1ccc2c(c1)Oc1ccc(N(C(C)=O)c3ccccc3)cc1C21OC(=O)c2ccccc21 (stereo unspecified) , result: 13.1

// growth inhibition lookup, compound = O=C(O)c1ccccc1C(=O)Cc1ccccc1 , result: -19

// growth inhibition lookup, compound = O=C(CN1C(=O)c2ccccc2C1=O)NC1(C(=O)O)CCCC1 , result: -14

// growth inhibition lookup, compound = CNC(=S)C(N)CCCC1NC(=S)N(C)C1=O (stereo unspecified) , result: 6.8

// growth inhibition lookup, compound = Cc1ccc(-n2[nH]nc(C#N)c2=O)cc1 , result: -20.6

// growth inhibition lookup, compound = O=S(=O)(SSS(=O)(=O)c1ccc(Cl)c(Cl)c1)c1ccc(Cl)c(Cl)c1 , result: 4.05

// growth inhibition lookup, compound = CCc1cccc(C(=O)O)c1N , result: 5.75

// growth inhibition lookup, compound = C(#[C][Sn]([c]1ccccc1)([c]1ccccc1)[c]1ccccc1)c1ccccc1 , result: 95.5

// growth inhibition lookup, compound = COc1cc(C=O)c(-c2cc(OC)c(OC)cc2C=O)cc1OC , result: -6.65
